test: Half life in rat at 50 mg/kg, ip
Format: ADME, organism-based
Parameters: dose 50 mg/kg, route intraperitoneal
run parameters: in vivo
Form field: half-life (one value per entry).
I only need the number, in h, no unit after it.

Answered examples (2):
- COc1cc(-c2cc(O)nc(N)n2)ccc1OCC(C)C: 0.85
- Nc1nc(-c2ccc(-c3ccccc3)cc2)cc(=O)[nH]1: 5.52

Now take the following compound into account.
**Query** May I ask what half-life has been recorded for CC(C)COc1ccc(-c2cc(O)nc(N)n2)cc1[N+](=O)[O-] ?
**Result** 12.2

---

test: Initial plasma concentration in rat at 2 mg/kg iv
Assay type: ADME, organism-based
Design: dose 2 mg/kg, route intravenous
endpoint label: C0

**Query** May I ask what C0 has been recorded for CC(C)COc1ccc(-c2cc(=O)[nH]c(N)n2)cc1C#N ?
**Result** 1360 ng/mL

---

test: AUClast in rat at 2 mg/kg, iv
Type: ADME, organism-based
Parameters: time 0 - last, dose 2 mg/kg, route intravenous
run parameters: plasma
endpoint label: AUC(0-t) (ng·h/mL)
I only need the number, in ng·h/mL, no unit after it.

**Query** May I ask what AUC(0-t) has been recorded for CC(C)COc1ccc(-c2cc(=O)[nH]c(N)n2)cc1C#N ?
**Result** 470

---

test: Clearance in rat at 2 mg/kg, iv
Assay type: ADME, organism-based
Parameters: dose 2 mg/kg, route intravenous
run parameters: in vivo
endpoint label: clearance (mL/min/kg)
I only need the number, in mL/min/kg, no unit after it.

**Query** May I ask what clearance has been recorded for CC(C)COc1ccc(-c2cc(=O)[nH]c(N)n2)cc1C#N ?
**Result** 71.3

---

test: AUClast in rat at 50 mg/kg, ip
Assay type: ADME, organism-based
Set-up: time 0 - last, dose 50 mg/kg, route intraperitoneal
run parameters: plasma
Form field: AUC(0-t) (one value per entry).
I only need the number, in ng·h/mL, no unit after it.

Answered examples (2):
• Nc1nc(-c2ccc(-c3ccccc3)cc2)cc(=O)[nH]1 = 21900
• COc1cc(-c2cc(O)nc(N)n2)ccc1OCC(C)C = 27600

Now take the following compound into account.
**Query** May I ask what AUC(0-t) has been recorded for CC(C)COc1ccc(-c2cc(O)nc(N)n2)cc1[N+](=O)[O-] ?
**Result** 14000

---

test: AUC (0 to infinity) in rat at 10 mg/kg, po
Assay type: ADME, organism-based
Design: time infinity, dose 10 mg/kg, route oral
run parameters: plasma
endpoint label: AUC(0-inf) (ng·h/mL)
I only need the number, in ng·h/mL, no unit after it.

**Query** May I ask what AUC(0-inf) has been recorded for CC(C)COc1ccc(-c2cc(=O)[nH]c(N)n2)cc1C#N ?
**Result** 310

---

Form field: Cmax (one value per entry).
test: Cmax in rat at 50 mg/kg, ip
Assay type: ADME, organism-based
Set-up: dose 50 mg/kg, route intraperitoneal
run parameters: in vivo
I only need the number, in µM, no unit after it.

**Query** May I ask what Cmax has been recorded for CC(C)COc1ccc(-c2cc(O)nc(N)n2)cc1[N+](=O)[O-] ?
**Result** 9.59

**Query** May I ask what Cmax has been recorded for Nc1nc(-c2ccc(-c3ccccc3)cc2)cc(=O)[nH]1 ?
**Result** 7.13

**Query** May I ask what Cmax has been recorded for COc1cc(-c2cc(O)nc(N)n2)ccc1OCC(C)C ?
**Result** 34.3

---

test: Half life in rat at 100 mg/kg, po
Format: ADME, organism-based
Parameters: dose 100 mg/kg, route oral
run parameters: in vivo
endpoint label: half-life
Value and unit, in that order.

Answered examples (2):
* COc1ccc(-c2cc(=O)[nH]c(N)n2)cc1 | 6.59 h
* CC(C)COc1ccc(-c2cc(O)nc(N)n2)cc1 | 3.42 h

Now take the following molecule into account.
**Query** May I ask what half-life has been recorded for Nc1nc(-c2ccc(-c3ccccc3)cc2)cc(=O)[nH]1 ?
**Result** 2.85 h

---

Tested on: Rattus norvegicus
test: Antihyperuricemic activity in fasted rat assessed as reduction in potassium oxonate-induced uric acid level in serum at 100 mg/kg, ip administered 1 hr post potassium oxonate-challenge relative to vehicle-treated control
Format: functional
Parameters: scale not given: the % may be the effect or the level left
run parameters: route intraperitoneal
Form field: Activity (one value per entry).
I only need the number, in %, no unit after it.

* Cc1nc(-c2ccc(OCC(C)C)c(C#N)c2)sc1C(=O)O [FEBUXOSTAT] | 181
* Oc1ncnc2[nH]ncc12 [ALLOPURINOL] | 177
* CC(C)COc1ccc(-c2cc(O)nc(N)n2)cc1 | 77
* CC(C)COc1ccc(-c2cc(O)nc(N)n2)cc1C#N | 124

**Query** May I ask what Activity has been recorded for CC(C)COc1ccc(-c2cc(O)nc(N)n2)cc1[N+](=O)[O-] ?
**Result** 133

---

test: Tmax in rat at 100 mg/kg, po
Assay type: ADME, organism-based
Parameters: dose 100 mg/kg, route oral
run parameters: in vivo
Form field: Tmax (one value per entry).
I only need the number, in min, no unit after it.

• COc1ccc(-c2cc(=O)[nH]c(N)n2)cc1 = 15
• Nc1nc(-c2ccc(-c3ccccc3)cc2)cc(=O)[nH]1 = 52.8

Now take the following molecule into account.
**Query** May I ask what Tmax has been recorded for CC(C)COc1ccc(-c2cc(O)nc(N)n2)cc1 ?
**Result** 30

---

test: Tmax in rat at 50 mg/kg, ip
Assay type: ADME, organism-based
Set-up: dose 50 mg/kg, route intraperitoneal
run parameters: in vivo
endpoint label: Tmax (h)
I only need the number, in h, no unit after it.

Answered examples (2):
• Nc1nc(-c2ccc(-c3ccccc3)cc2)cc(=O)[nH]1 = 3.33
• COc1cc(-c2cc(O)nc(N)n2)ccc1OCC(C)C = 2

Now take the following compound into account.
**Query** May I ask what Tmax has been recorded for CC(C)COc1ccc(-c2cc(O)nc(N)n2)cc1[N+](=O)[O-] ?
**Result** 2

---

assay system: Xanthine dehydrogenase/oxidase (Homo sapiens, UniProt P47989)
Sequence (P47989 whole entry): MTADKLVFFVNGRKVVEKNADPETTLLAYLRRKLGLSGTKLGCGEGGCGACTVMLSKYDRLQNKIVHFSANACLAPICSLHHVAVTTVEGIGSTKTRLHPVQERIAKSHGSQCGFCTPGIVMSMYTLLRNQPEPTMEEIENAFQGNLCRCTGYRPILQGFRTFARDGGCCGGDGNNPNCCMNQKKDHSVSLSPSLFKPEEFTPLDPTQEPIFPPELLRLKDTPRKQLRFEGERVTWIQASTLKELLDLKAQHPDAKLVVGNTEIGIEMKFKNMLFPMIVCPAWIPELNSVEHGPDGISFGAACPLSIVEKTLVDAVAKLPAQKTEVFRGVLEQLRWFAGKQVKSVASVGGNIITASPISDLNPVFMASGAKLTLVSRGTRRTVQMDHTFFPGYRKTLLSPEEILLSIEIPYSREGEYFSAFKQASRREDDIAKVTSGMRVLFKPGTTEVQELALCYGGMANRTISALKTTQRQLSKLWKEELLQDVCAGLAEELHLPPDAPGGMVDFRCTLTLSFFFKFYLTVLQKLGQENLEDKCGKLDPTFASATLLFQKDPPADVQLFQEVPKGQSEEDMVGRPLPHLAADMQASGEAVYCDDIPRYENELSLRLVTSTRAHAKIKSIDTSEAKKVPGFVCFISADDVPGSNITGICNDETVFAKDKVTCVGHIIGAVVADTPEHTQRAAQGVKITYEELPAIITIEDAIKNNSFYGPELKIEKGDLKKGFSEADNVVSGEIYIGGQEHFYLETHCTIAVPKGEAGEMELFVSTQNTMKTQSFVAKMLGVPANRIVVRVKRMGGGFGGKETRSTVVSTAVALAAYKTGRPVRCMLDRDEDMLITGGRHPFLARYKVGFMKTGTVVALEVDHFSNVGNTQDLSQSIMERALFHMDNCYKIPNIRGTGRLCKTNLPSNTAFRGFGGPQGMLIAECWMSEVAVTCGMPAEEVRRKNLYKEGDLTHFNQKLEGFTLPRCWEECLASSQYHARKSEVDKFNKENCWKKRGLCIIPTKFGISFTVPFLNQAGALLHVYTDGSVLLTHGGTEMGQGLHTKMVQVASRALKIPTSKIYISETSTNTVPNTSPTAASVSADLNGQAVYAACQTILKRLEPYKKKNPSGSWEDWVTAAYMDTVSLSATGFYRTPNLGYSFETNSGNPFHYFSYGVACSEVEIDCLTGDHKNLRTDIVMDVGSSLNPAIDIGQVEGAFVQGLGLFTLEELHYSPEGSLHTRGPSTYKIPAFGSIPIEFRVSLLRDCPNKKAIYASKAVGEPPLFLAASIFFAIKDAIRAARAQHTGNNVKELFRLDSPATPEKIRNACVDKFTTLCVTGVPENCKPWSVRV
endpoint label: pIC50
// pIC50: -log10(molar conc.)

Answered examples (3):
- CC(C)Sc1ccc(-c2cc(O)nc(N)n2)cc1: 5.61
- CCCCSc1ccc(-c2cc(=O)[nH]c(N)n2)cc1: 5.79
- CCCCOc1ccc(-c2cc(=O)[nH]c(N)n2)cc1: 5.68

**Query** Fill in the recorded pIC50 for this compound, with Xanthine dehydrogenase/oxidase (Homo sapiens, UniProt P47989) as test system: Nc1nc(O)cc(-c2ccc(OCCCO)cc2)n1
**Result** 5.03

---

test: Half life in rat at 2 mg/kg, iv
Type: ADME, organism-based
Set-up: dose 2 mg/kg, route intravenous
run parameters: in vivo
endpoint label: half-life (min)
I only need the number, in min, no unit after it.

**Query** May I ask what half-life has been recorded for CC(C)COc1ccc(-c2cc(=O)[nH]c(N)n2)cc1C#N ?
**Result** 37.8

---

test: Cmax in rat at 100 mg/kg, po
Type: ADME, organism-based
Design: dose 100 mg/kg, route oral
run parameters: in vivo
Form field: Cmax (one value per entry).
I only need the number, in µM, no unit after it.

Answered examples (2):
- CC(C)COc1ccc(-c2cc(O)nc(N)n2)cc1: 5.16
- COc1ccc(-c2cc(=O)[nH]c(N)n2)cc1: 23.5

Now take the following compound into account.
**Query** May I ask what Cmax has been recorded for Nc1nc(-c2ccc(-c3ccccc3)cc2)cc(=O)[nH]1 ?
**Result** 0.81
